Data provenance: the supplement of paper PMC6555819

# System: LXRa:RXRa (NR concentration 270 nM, RXRa partner concentration 90 nM)
# assayExplanation: PBM binding z-score (relative to random genomic background probes); higher = stronger binding; sequences stand for … in GC…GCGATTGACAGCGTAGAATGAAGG
Binary classification by PBM binding z-score, with 2 as an inclusive lower bound for rule met; all other cases are rule not met.

Say whether "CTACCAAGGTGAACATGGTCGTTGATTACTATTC" shows PBM binding z-score of 2 or more.
rule not met

One more sequence: "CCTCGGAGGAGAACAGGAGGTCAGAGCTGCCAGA"
rule not met

One more sequence: "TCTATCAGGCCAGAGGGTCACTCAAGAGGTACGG"
rule not met

One more sequence: "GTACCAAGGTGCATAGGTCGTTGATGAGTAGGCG"
rule not met

One more sequence: "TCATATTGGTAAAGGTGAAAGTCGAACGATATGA"
rule not met

One more sequence: "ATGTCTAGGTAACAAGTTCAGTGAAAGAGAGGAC"
rule not met

One more sequence: "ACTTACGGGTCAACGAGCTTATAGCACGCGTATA"
rule met

One more sequence: "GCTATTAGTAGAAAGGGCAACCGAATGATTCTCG"
rule not met

One more sequence: "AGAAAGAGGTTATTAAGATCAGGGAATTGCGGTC"
rule met

One more sequence: "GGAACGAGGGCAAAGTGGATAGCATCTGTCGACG"
rule not met

One more sequence: "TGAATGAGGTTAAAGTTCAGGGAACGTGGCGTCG"
rule met

One more sequence: "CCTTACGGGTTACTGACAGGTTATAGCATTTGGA"
rule met

One more sequence: "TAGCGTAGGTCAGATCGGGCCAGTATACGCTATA"
rule not met

One more sequence: "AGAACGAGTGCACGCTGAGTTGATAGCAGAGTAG"
rule not met

One more sequence: "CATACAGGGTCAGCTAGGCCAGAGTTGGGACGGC"
rule met

One more sequence: "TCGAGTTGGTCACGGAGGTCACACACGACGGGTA"
rule met

One more sequence: "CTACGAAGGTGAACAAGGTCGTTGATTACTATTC"
rule not met

One more sequence: "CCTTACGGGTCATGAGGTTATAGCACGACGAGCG"
rule met

One more sequence: "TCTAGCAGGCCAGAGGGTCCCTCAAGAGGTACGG"
rule not met

One more sequence: "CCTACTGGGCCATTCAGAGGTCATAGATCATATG"
rule met

One more sequence: "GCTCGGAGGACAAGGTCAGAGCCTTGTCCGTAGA"
rule met

One more sequence: "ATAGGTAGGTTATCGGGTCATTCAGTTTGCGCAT"
rule met

One more sequence: "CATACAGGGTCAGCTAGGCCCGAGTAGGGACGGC"
rule met

One more sequence: "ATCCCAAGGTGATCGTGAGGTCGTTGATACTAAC"
rule not met

One more sequence: "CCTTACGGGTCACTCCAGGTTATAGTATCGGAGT"
rule met

One more sequence: "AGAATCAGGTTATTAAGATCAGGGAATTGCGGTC"
rule not met

One more sequence: "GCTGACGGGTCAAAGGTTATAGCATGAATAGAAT"
rule met

One more sequence: "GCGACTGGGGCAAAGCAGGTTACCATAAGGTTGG"
rule not met

One more sequence: "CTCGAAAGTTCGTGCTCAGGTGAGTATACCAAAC"
rule not met

One more sequence: "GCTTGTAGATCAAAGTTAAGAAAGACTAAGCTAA"
rule not met

One more sequence: "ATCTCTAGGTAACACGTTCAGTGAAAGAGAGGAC"
rule not met

One more sequence: "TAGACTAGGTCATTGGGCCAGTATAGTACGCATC"
rule met

One more sequence: "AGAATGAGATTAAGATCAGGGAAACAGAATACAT"
rule not met

One more sequence: "CCTACTGGGCCATTCAGAGGTCTTTGATCATATG"
rule not met

One more sequence: "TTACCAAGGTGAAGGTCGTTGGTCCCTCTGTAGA"
rule not met

One more sequence: "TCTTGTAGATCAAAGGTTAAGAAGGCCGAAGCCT"
rule met

One more sequence: "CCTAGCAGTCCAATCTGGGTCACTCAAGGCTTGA"
rule not met

One more sequence: "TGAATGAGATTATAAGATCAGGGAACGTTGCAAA"
rule not met

One more sequence: "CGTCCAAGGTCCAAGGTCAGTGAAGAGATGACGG"
rule not met

One more sequence: "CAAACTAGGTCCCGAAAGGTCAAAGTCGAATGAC"
rule met

One more sequence: "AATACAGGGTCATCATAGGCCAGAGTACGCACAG"
rule met

One more sequence: "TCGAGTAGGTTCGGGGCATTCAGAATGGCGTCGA"
rule not met

One more sequence: "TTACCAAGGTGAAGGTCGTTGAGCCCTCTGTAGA"
rule not met

One more sequence: "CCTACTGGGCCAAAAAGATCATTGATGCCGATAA"
rule not met

One more sequence: "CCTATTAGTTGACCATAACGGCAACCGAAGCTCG"
rule not met

One more sequence: "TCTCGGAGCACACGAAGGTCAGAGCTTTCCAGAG"
rule not met

One more sequence: "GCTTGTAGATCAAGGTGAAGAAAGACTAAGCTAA"
rule not met

One more sequence: "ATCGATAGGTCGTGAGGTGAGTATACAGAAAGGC"
rule not met

One more sequence: "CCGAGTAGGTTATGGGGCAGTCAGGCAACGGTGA"
rule not met

One more sequence: "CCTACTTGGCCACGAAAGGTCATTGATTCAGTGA"
rule met
